Source listed as patent US12448389B2.

Catalogue of Dmax values
# test-target: SMARCA4-HiBiT (Homo sapiens)
# Construct: SMARCA4-HiBiT knock-in Hela monoclonal cell (CS3023226); host or cells: HeLa monoclonal knock-in line (CRISPR HiBiT knock-in at the endogenous locus, heterozygous)
# Sequence (P51532 whole entry): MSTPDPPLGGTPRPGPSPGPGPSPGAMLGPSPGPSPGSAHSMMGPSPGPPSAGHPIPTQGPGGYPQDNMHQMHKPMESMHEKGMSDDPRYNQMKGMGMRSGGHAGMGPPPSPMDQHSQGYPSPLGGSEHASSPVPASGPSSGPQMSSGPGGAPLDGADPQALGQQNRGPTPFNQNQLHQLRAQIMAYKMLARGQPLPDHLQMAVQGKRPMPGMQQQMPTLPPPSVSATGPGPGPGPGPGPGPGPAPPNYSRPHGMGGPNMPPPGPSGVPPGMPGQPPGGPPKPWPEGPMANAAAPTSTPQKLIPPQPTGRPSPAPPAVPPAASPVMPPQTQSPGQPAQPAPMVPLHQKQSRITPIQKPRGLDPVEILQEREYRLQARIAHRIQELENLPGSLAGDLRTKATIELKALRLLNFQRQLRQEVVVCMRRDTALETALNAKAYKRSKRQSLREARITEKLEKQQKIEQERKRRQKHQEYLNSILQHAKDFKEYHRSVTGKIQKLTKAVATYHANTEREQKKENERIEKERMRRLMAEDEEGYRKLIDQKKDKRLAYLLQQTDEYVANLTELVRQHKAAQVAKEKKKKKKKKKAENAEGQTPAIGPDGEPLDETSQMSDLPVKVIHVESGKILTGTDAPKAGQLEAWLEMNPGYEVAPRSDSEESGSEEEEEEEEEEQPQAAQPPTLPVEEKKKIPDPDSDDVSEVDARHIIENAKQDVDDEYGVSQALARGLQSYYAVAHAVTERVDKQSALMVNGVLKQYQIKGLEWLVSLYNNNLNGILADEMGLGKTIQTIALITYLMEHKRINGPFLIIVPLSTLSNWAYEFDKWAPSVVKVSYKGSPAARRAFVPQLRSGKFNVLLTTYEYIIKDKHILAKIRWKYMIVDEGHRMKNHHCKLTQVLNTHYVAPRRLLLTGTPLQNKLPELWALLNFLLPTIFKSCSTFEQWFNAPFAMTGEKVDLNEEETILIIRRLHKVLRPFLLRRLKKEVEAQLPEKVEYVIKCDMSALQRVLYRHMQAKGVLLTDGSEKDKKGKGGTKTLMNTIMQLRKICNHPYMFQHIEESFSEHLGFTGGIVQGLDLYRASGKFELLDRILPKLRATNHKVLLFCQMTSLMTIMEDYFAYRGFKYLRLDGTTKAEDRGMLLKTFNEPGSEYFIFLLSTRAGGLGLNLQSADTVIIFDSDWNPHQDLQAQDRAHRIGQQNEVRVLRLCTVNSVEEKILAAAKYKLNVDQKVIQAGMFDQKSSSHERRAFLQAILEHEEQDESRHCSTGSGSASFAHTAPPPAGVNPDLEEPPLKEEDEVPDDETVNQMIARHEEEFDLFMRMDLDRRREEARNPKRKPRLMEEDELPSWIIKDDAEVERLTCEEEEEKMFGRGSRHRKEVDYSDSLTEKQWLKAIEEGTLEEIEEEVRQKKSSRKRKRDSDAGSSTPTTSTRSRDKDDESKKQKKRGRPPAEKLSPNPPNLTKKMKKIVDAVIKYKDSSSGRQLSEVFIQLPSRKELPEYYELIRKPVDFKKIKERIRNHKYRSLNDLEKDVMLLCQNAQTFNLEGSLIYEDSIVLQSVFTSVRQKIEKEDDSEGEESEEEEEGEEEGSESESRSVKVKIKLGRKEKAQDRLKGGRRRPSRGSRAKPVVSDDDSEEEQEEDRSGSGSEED
# assay-procedure: SMARCA4 HiBiT degradation assay in HeLa cells
# Format: cell-based
# protocol-conditions: HeLa, 18 hours incubation, read-out: HeLa-HiBit-SM4 Dmax (%)
attribute-measured: Dmax

[[record]]
molecule = "O=C1CCC(N2C(=O)c3ccc(N4CC5(CC(CN6CCC(CN7CCN8c9cc(-c%10ccccc%10O)nnc9NC[C@H]8C7)CC6)C5)C4)cc3C2=O)C(=O)N1 (some centres unmarked)"
attribute_measured = "Dmax"
result = "> 85%"

[[record]]
molecule = "CN(CCNc1ccc2c(c1)C(=O)N(C1CCC(=O)NC1=O)C2=O)C1CCC(N2CCN3c4cc(-c5ccccc5O)nnc4NC[C@H]3C2)CC1 (some centres unmarked)"
attribute_measured = "Dmax"
result = "75 to 85%"

[[record]]
molecule = "O=C1CC[C@@H](N2Cc3cc(OCCN4CCC(N5CCN6c7cc(-c8ccccc8O)nnc7NC[C@H]6C5)CC4)ccc3C2=O)C(=O)N1"
attribute_measured = "Dmax"
result = "50 to 75%"

[[record]]
molecule = "O=C1CCC(N2C(=O)c3ccc(N4CCC(F)(F)C(CN5C[C@@H]6[C@H](C5)[C@H]6CN5CCN6c7cc(-c8ccccc8O)nnc7NC[C@H]6C5)C4)cc3C2=O)C(=O)N1 (some centres unmarked)"
attribute_measured = "Dmax"
result = "75 to 85%"

[[record]]
molecule = "O=C1CCC(N2C(=O)c3ccc(C4CCN(C5CCN(CCN6CCN7c8cc(-c9ccccc9O)nnc8NC[C@H]7C6)C5)CC4)cc3C2=O)C(=O)N1 (some centres unmarked)"
attribute_measured = "Dmax"
result = "> 85%"

[[record]]
molecule = "O=C1CCC(N2C(=O)c3ccc(NCCN4CCC(N5CCN6c7cc(-c8cc(F)ccc8O)nnc7NC[C@H]6C5)CC4)cc3C2=O)C(=O)N1 (some centres unmarked)"
attribute_measured = "Dmax"
result = "> 85%"

[[record]]
molecule = "O=C1CCC(N2C(=O)c3ccc(N4CCC(N[C@H]5C[C@@H](CN6CCN7c8cc(-c9ccccc9O)nnc8NC[C@H]7C6)C5)CC4)cc3C2=O)C(=O)N1 (some centres unmarked)"
attribute_measured = "Dmax"
result = "> 85%"

[[record]]
molecule = "O=C1CCC(N2Cc3ccc(N4CCC(CN5CCN(C(=O)N6CCN7c8cc(-c9ccccc9O)nnc8NC[C@H]7C6)C(C(F)(F)F)C5)CC4)cc3C2=O)C(=O)N1 (some centres unmarked)"
attribute_measured = "Dmax"
result = "75 to 85%"

[[record]]
molecule = "O=C1CCC(N2Cc3ccc(N4CCC(CN5CCC(F)(CN6CCN7c8cc(-c9ccccc9O)nnc8NC[C@H]7C6)CC5)CC4)cc3C2=O)C(=O)N1 (some centres unmarked)"
attribute_measured = "Dmax"
result = "> 85%"

[[record]]
molecule = "O=C1CCC(N2C(=O)c3ccc(C4CCN(CC5CCN(C(=O)N6CCN7c8cc(-c9ccccc9O)nnc8NC[C@H]7C6)CC5)CC4)cc3C2=O)C(=O)N1 (some centres unmarked)"
attribute_measured = "Dmax"
result = "75 to 85%"

[[record]]
molecule = "CC1(CN2CCN3c4cc(-c5ccccc5O)nnc4NC[C@H]3C2)CCN(CC2CCN(c3ccc4c(c3)C(=O)N(C3CCC(=O)NC3=O)C4=O)CC2)CC1 (some centres unmarked)"
attribute_measured = "Dmax"
result = "> 85%"

